Reference source for all entries: ChEMBL document CHEMBL1201862

System: SK-MEL-2
experimental.details: NCI tumour cell line growth inhibition, 48 h
Counter-ions that a name gives are not always drawn. Activity calls are given as the source filed them. Cut-off read from the data, not from the text of the source: active = GI50 up to about 1.1 µM and inactive = higher.
reported.property: GI50

[[record]]
molecule = "CC1=NN(c2ccccc2)C(=O)C1=C1SCCCS1"
reported_property = "GI50"
result = "56 µM (inactive)"

[[record]]
molecule = "COc1cc(C2c3cc4c(cc3OC(N3CCOCC3)C2C)OCO4)cc(OC)c1OC (configuration not stated)"
reported_property = "GI50"
result = "2.02 µM (inactive)"

[[record]]
molecule = "COc1ccc(OC)c(/C(C)=N/NC(N)=S)c1"
reported_property = "GI50"
result = "> 100 µM (inactive)"

[[record]]
molecule = "Clc1cc(OCc2nn3c(Cc4ccccc4)nnc3s2)ccc1OCc1nn2c(Cc3ccccc3)nnc2s1"
reported_property = "GI50"
result = "> 100 µM (inactive)"

[[record]]
molecule = "C=CC[C@]12C[C@@H](C(=O)OC)N(C(=O)OC)[C@H]1N(S(=O)(=O)c1ccccc1)c1ccccc12"
reported_property = "GI50"
result = "42.3 µM (inactive)"

[[record]]
molecule = "CSc1ncc2c(C#N)c3ccccn3c(=O)c2n1"
reported_property = "GI50"
result = "> 100 µM (inactive)"

[[record]]
molecule = "O=C(NCCCCNc1cccccc1=O)OCc1ccccc1"
reported_property = "GI50"
result = "> 100 µM (inactive)"

[[record]]
molecule = "O=C(NCCCCN(CCCNC(=O)C(F)(F)F)Cc1ccccc1)C(F)(F)F"
reported_property = "GI50"
result = "> 100 µM (inactive)"

[[record]]
molecule = "Cc1ccc(S(=O)(=O)N/N=C2\\C=CC3(CC2)C(=O)N(I)c2ccccc23)cc1 (configuration not stated)"
reported_property = "GI50"
result = "48.1 µM (inactive)"

[[record]]
molecule = "COc1ccc(C2c3cc4c(cc3OC(Nc3ccccc3)C2C)OCO4)cc1 (configuration not stated)"
reported_property = "GI50"
result = "> 100 µM (inactive)"

[[record]]
molecule = "O=C(O)CN1CCN2CCCCCCCCN(CC1)CCN(CC(=O)O)CC2"
reported_property = "GI50"
result = "> 100 µM (inactive)"

[[record]]
molecule = "CCOC(=O)c1cn2c(n1)sc1c(Cl)c(Cl)ccc12"
reported_property = "GI50"
result = "27.4 µM (inactive)"

[[record]]
molecule = "CC(C)(C)C(=C[S+]([O-])/N=C/c1ccccc1)C(C)(C)C (configuration not stated)"
reported_property = "GI50"
result = "15.9 µM (inactive)"

[[record]]
molecule = "CN(C)CCC=C1c2ccccc2C=Cc2ccccc21 [CYCLOBENZAPRINE HYDROCHLORIDE]"
reported_property = "GI50"
result = "16.3 µM (inactive)"

[[record]]
molecule = "CC(=O)N/N=C1\\NC(=O)C[C@H]2[C@@H]3CC=C4C[C@@H](OC(C)=O)CC[C@]4(C)[C@H]3CC[C@]12C"
reported_property = "GI50"
result = "47.5 µM (inactive)"

[[record]]
molecule = "O=C(Nc1ccc(C(F)(F)F)cc1)NC(F)(F)F"
reported_property = "GI50"
result = "> 100 µM (inactive)"

[[record]]
molecule = "C=C1C(=O)OC2C1C(OC(=O)/C(C)=C/C)CC1(C)C(=O)CCC(=C)C21 (configuration not stated)"
reported_property = "GI50"
result = "11.9 µM (inactive)"

[[record]]
molecule = "COc1ccc(CCN2CCOCC2)cc1"
reported_property = "GI50"
result = "> 100 µM (inactive)"

[[record]]
molecule = "Clc1ccccc1/C=C/c1nsc(/C=C/c2ccccc2Cl)n1"
reported_property = "GI50"
result = "> 100 µM (inactive)"

[[record]]
molecule = "O=C(/C=C/c1ccsc1)c1ccco1"
reported_property = "GI50"
result = "14.1 µM (inactive)"

[[record]]
molecule = "CCC1(C)NN=c2s/c(=C/c3ccc(OC)cc3)c(=O)n2N1 (configuration not stated)"
reported_property = "GI50"
result = "> 100 µM (inactive)"

[[record]]
molecule = "Cc1nnc2n1N=C(c1ccccc1)/C(=C/c1ccc(-c3ccc(Cl)cc3)o1)S2"
reported_property = "GI50"
result = "13.2 µM (inactive)"

